Data credit: patent US8242118B2

Target: Human CCR3 (Homo sapiens, UniProt P51677)
Construct: The cloned CCR3 cDNA was constructed with pcDNA3 vector and transfected into a IC562 cell line; expressed in transfected cells
Sequence (P51677 whole entry): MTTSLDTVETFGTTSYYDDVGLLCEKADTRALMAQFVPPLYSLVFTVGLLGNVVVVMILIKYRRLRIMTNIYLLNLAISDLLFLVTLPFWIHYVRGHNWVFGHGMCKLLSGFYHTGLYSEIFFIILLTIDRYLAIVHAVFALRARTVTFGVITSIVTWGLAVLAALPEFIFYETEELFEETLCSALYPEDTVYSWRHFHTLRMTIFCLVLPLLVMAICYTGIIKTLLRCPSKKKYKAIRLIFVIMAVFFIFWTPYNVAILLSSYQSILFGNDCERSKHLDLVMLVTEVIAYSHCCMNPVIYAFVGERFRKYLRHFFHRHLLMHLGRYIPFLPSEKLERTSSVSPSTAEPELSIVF
Assay: Receptor binding assay (RBA), [125I]-eotaxin
Conditions: human CCR3-transformed K562 cells, 0.1 nM [125I]-eotaxin; compounds of about 40 to 90% purity; read-out: Activity grade RBA (IC50 class)
Counter-ions that a name gives are not always drawn.
Reported IC50 values for a set of compounds

Enquiry: # get_value(readout='IC50', item= CC(=O)Nc1ccc(Oc2cc(C)cc(C)c2)c(S(=O)(=O)N2CCNCC2)c1 [Example 7-2] )
Return: > 10000 nM

Enquiry: # get_value(readout='IC50', item= Cc1cc(C)cc(Oc2ccc(NC(=O)c3ccccc3)cc2S(=O)(=O)N2CCNCC2)c1 [Example 7-5] )
Return: > 10000 nM

Enquiry: # get_value(readout='IC50', item= COc1ccc(Oc2cc(C)cc(C)c2)c(S(=O)(=O)N2CCNCC2)c1 [Example 6-2, hydrochloride] )
Return: < 1000 nM

Enquiry: # get_value(readout='IC50', item= O=[N+]([O-])c1ccc(Oc2cc(Cl)cc(Cl)c2)c(S(=O)(=O)N2CCN(CCC(F)(F)F)CC2)c1 [Example 4-34] )
Return: < 1000 nM

Enquiry: # get_value(readout='IC50', item= Cl.N[C@@H]1CCN(S(=O)(=O)c2cc([N+](=O)[O-])ccc2Sc2cc(Cl)cc(Cl)c2)C1 [Example 2-11] )
Return: < 1000 nM

Enquiry: # get_value(readout='IC50', item= COc1cc(OC)cc(Oc2ccc([N+](=O)[O-])cc2S(=O)(=O)N2CCNCC2)c1.Cl [Example 1-5] )
Return: > 10000 nM

Enquiry: # get_value(readout='IC50', item= CN(CCN1CCCCC1)S(=O)(=O)c1cc([N+](=O)[O-])ccc1Sc1cc(Cl)cc(Cl)c1 [Example 26-1] )
Return: < 1000 nM

Enquiry: # get_value(readout='IC50', item= Cc1cc(C)cc(Oc2ccc(Cl)cc2S(=O)(=O)N2CCNCC2)c1 [Example 5-2, hydrochloride] )
Return: < 1000 nM

Enquiry: # get_value(readout='IC50', item= Cc1ccc(Oc2ccc([N+](=O)[O-])cc2S(=O)(=O)N2CCNCC2)cc1.Cl [Example 1-16] )
Return: > 10000 nM

Enquiry: # get_value(readout='IC50', item= O=[N+]([O-])c1ccc(Oc2cc(Cl)cc(Cl)c2)c(S(=O)(=O)N2CCC[C@H]2CN2CCCC2)c1 [Example 4-22] )
Return: < 1000 nM

Enquiry: # get_value(readout='IC50', item= COc1ccc(Oc2ccc([N+](=O)[O-])cc2S(=O)(=O)N2CCNCC2)cc1 [Example 1-19] )
Return: > 10000 nM

Enquiry: # get_value(readout='IC50', item= Cc1cc(C)cc(Sc2ccc([N+](=O)[O-])cc2S(=O)(=O)N2CCNCC2)c1 [Example 2-1, hydrochloride] )
Return: < 1000 nM

Enquiry: # get_value(readout='IC50', item= Cc1cc(C)cc(Oc2ccc(C#N)cc2S(=O)(=O)N2CCNCC2)c1 [Example 9-1, hydrochloride] )
Return: < 1000 nM

Enquiry: # get_value(readout='IC50', item= Cc1cc(Oc2ccc([N+](=O)[O-])cc2S(=O)(=O)N2CCNCC2)ccc1Cl.Cl [Example 1-60] )
Return: 1000 to 10000 nM

Enquiry: # get_value(readout='IC50', item= O=[N+]([O-])c1ccc(Oc2cc(Cl)ccc2Cl)c(S(=O)(=O)N2CCNCC2)c1 [Example 1-84] )
Return: < 1000 nM

Enquiry: # get_value(readout='IC50', item= Cc1cc(C)cc(Oc2ccc([N+](=O)[O-])cc2S(=O)(=O)N2CCN(C=O)CC2)c1 [Example 4-10] )
Return: > 10000 nM

---

Readout kind: melting point (°C)

Below are worked cases with known answers.
Molecule	melting point (°C)
Cc1cc(C)c(Sc2ccc([N+](=O)[O-])cc2S(=O)(=O)N2CCNCC2)c(C)c1.Cl	274
N#Cc1ccc(Oc2cc(Cl)cc(Cl)c2)c(S(=O)(=O)N2CCN3CCCC3C2)c1 (stereo not drawn)	161

I: Cc1ccc(Oc2ccc([N+](=O)[O-])cc2S(=O)(=O)N2CCNCC2)cc1C.Cl
II: Cc1cc(Oc2ccc([N+](=O)[O-])cc2S(=O)(=O)N2CCNCC2)ccc1Cl.Cl
Enquiry: Between the entries labeled I and II , whose measured melting point is lower? Please identify the chosen entry by its label.
Return: I
(I: 142 °C, II: 204 °C)

---

Target: Human CCR3 (Homo sapiens)
Construct: The cloned CCR3 cDNA was constructed with pcDNA3 vector and transfected into a IC562 cell line; expressed in transfected cells
Assay: Receptor binding assay (RBA), [125I]-eotaxin
Conditions: human CCR3-transformed K562 cells, 0.1 nM [125I]-eotaxin; compounds of about 40 to 90% purity; read-out: Activity grade RBA (IC50 class)
pIC50: −log10 of the molar value. Where a name gives a salt, the structure may show the parent alone.
Reported pIC50 values for a set of compounds

Below are worked cases with known answers.
Compound	Assayed system	pIC50
CCN(CC)C1CCN(S(=O)(=O)c2cc([N+](=O)[O-])ccc2Oc2cc(Cl)cc(Cl)c2)C1 (stereo not shown)	Human CCR3 (Homo sapiens)	> 6.00
Cc1ccc(C)c(Oc2ccc([N+](=O)[O-])cc2S(=O)(=O)N2CCNCC2)c1.Cl	Human CCR3 (Homo sapiens)	> 6.00
O=[N+]([O-])c1ccc(Oc2ccccc2)c(S(=O)(=O)N2CCNCC2)c1	Human CCR3 (Homo sapiens)	5.00 to 6.00
Cc1ccc(N2CCN(S(=O)(=O)c3cc([N+](=O)[O-])ccc3Oc3cc(C)cc(C)c3)CC2)cc1	Human CCR3 (Homo sapiens)	< 5.00
Cc1cc(C)cc(Oc2ccc(F)cc2S(=O)(=O)N2CCNCC2)c1	Human CCR3 (Homo sapiens)	> 6.00

Enquiry: # get_value(readout='pIC50', item= `Cc1ccc(Oc2ccc([N+](=O)[O-])cc2S(=O)(=O)N2CCNCC2)cc1C.Cl` )
Return: 5.00 to 6.00

Enquiry: # get_value(readout='pIC50', item= N#Cc1ccc(Oc2cc(Cl)cc(Cl)c2)c(S(=O)(=O)N2CCN3CCCC3C2)c1 (stereo not shown) )
Return: > 6.00

Enquiry: # get_value(readout='pIC50', item= `Cc1cc(C)cc(Oc2ccc(NC(=O)CC(C)C)cc2S(=O)(=O)N2CCNCC2)c1` )
Return: < 5.00

Enquiry: # get_value(readout='pIC50', item= CN(C)C(=O)c1ccc(Oc2cc(Cl)cc(Cl)c2)c(S(=O)(=O)N2CCNCC2)c1 [Example 10-1, hydrochloride] )
Return: 5.00 to 6.00

Enquiry: # get_value(readout='pIC50', item= `Cc1cc(C)cc(Oc2ccc(I)cc2S(=O)(=O)N2CCNCC2)c1.Cl` )
Return: > 6.00

Enquiry: # get_value(readout='pIC50', item= `Cc1ccc(Cl)c(Oc2ccc([N+](=O)[O-])cc2S(=O)(=O)N2CCNCC2)c1` )
Return: > 6.00

Enquiry: # get_value(readout='pIC50', item= `CN(C)CCN(C)S(=O)(=O)c1cc([N+](=O)[O-])ccc1Sc1cc(Cl)cc(Cl)c1` )
Return: > 6.00

Enquiry: # get_value(readout='pIC50', item= `Cc1cc(C)cc(Oc2ccc([N+](=O)[O-])cc2S(=O)(=O)N2CCN(CCOCCO)CC2)c1` )
Return: > 6.00

Enquiry: # get_value(readout='pIC50', item= O=C(O)C1CNCCN1S(=O)(=O)c1cc([N+](=O)[O-])ccc1Oc1cc(Cl)cc(Cl)c1 (stereo not shown) )
Return: > 6.00

Enquiry: # get_value(readout='pIC50', item= `Cc1cc(C)cc(Oc2ccc([N+](=O)[O-])cc2S(=O)(=O)N2CCN(C(C)C)CC2)c1` )
Return: > 6.00

Enquiry: # get_value(readout='pIC50', item= `Cl.O=[N+]([O-])c1cccc(Oc2ccc([N+](=O)[O-])cc2S(=O)(=O)N2CCNCC2)c1` )
Return: 5.00 to 6.00

---

Readout kind: melting point

Cc1cc(C)cc(Oc2cc(C)c(Cl)cc2S(=O)(=O)N2CCNCC2)c1.Cl 148 °C

Enquiry: # get_value(readout='melting point', item= `Cc1cccc(Oc2ccc([N+](=O)[O-])cc2S(=O)(=O)N2CCNCC2)c1.Cl` )
Return: 242 to 244 °C

Enquiry: # get_value(readout='melting point', item= `O=[N+]([O-])c1ccc(Oc2cc(Cl)cc(Cl)c2)c(S(=O)(=O)N2CCC[C@H]2CN2CCCC2)c1` )
Return: 200 to 202 °C

Enquiry: # get_value(readout='melting point', item= `Cc1cc(C)cc(Oc2ccc([N+](=O)[O-])cc2S(=O)(=O)N2CCN(c3ccccc3)CC2)c1` )
Return: 168 to 169 °C
